The reported measurements were obtained from PubChem BioAssay AID1159580.

experiment: chemical genetic growth profiling, strain panel (AID 1159580);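 also: tested at 20 µM; growth read once vehicle control cultures reached saturation at 30 °C; 1 = growth at the plate median or of vehicle wells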; conditions: S. cerevisiae deletion strains, growth OD, locus YLR258W, strain gsy2
The campaign covered roughly 5,500 compounds. About 2,000 (36%) were called active. Roughly 18% stayed inconclusive and do not appear here. Rule as the data show it: active = normalized growth mostly below about 0.91 (no sharp cut-off); inconclusive = no clear call, values can overlap the other calls; inactive = mostly above about 0.92. The list shows a part of the results.
// classify into 1 for active, -1 for inactive

Asked: # fetch the recorded call for COC1CC2CCC(C)C(O)(O2)C(=O)C(=O)N2CCCCC2C(=O)OC(C(C)CC2CCC(O)C(OC)C2)CC(=O)C(C)/C=C(\C)C(O)C(OC)C(=O)C(C)CC(C)/C=C/C=C/C=C/1C (centres undefined) here
Given back: 1

Asked: # fetch the recorded call for COc1cc(C/C=C/c2ccccc2)c(OC)cc1O here
Given back: -1

Asked: # fetch the recorded call for CC1(C)CC2C1CC[C@]1(C)CCC3C(C(=O)O)CC(=O)O[C@@]32C1 (some centres undefined) here
Given back: 1

Asked: # fetch the recorded call for CN(C)[C@@H]1C(=O)C(C(N)=O)=C(O)[C@@]2(O)C(=O)C3=C(O)c4c(O)ccc(Cl)c4[C@@](C)(O)[C@H]3C[C@@H]12 here
Given back: -1

Asked: # fetch the recorded call for CC(C)CCCC(C)[C@H]1CCC2C3CC=C4CC(=O)CC[C@]4(C)C3CC[C@@]21C (some centres undefined) here
Given back: -1

Asked: # fetch the recorded call for OC[C@H]1O[C@@H](O[C@@H]2[C@@H](CO)O[C@](O)(CO)[C@H]2O)[C@H](O)[C@@H](O)[C@H]1O here
Given back: -1

Asked: # fetch the recorded call for NC(=O)c1cccnc1 here
Given back: -1

Asked: # fetch the recorded call for Cc1nc(N)cc(C[n+]2csc(CCO)c2C)n1 here
Given back: -1

Asked: # fetch the recorded call for COC(=O)c1c(OC)cc2c(c1C)Oc1c(Cl)c(O)c(Cl)c(C)c1C(=O)O2 here
Given back: -1

Asked: # fetch the recorded call for OC[C@H]1O[C@@H](O[C@H]2[C@H](O)[C@@H](O)[C@@H](O)O[C@@H]2CO)[C@H](O)[C@@H](O)[C@@H]1O here
Given back: -1

Asked: # fetch the recorded call for CC1=CCCC2C1(C)CCC(C)C2(C)CC/C(C)=C/C[n+]1cn(C)c2c(N)ncnc21 (centres undefined) here
Given back: -1

Asked: # fetch the recorded call for CC(=O)OCC(=O)[C@@]1(O)[C@H](C)CC2C3CCC4=CC(=O)C=C[C@]4(C)[C@@]3(F)[C@@H](O)C[C@@]21C (some centres undefined) here
Given back: -1

Asked: # fetch the recorded call for CC(=O)c1ccc(O)c(CC=C(C)C)c1 here
Given back: -1

Asked: # fetch the recorded call for CC1=CC(=O)c2c(O)cccc2C1=O here
Given back: 1

Asked: # fetch the recorded call for COC(=O)c1c(OC)cc2c(c1C)Oc1c(Cl)c(OC(C)=O)c(Cl)c(C)c1C(=O)O2 here
Given back: -1

Asked: # fetch the recorded call for CC(C)c1ccc2c(c1)CCC1C(C)(C(N)=O)CCCC21C (centres undefined) here
Given back: -1

Asked: # fetch the recorded call for C[C@H]1c2cccc(O)c2C(O)=C2C(=O)[C@]3(O)C(O)=C(C(N)=O)C(=O)[C@@H](N(C)C)[C@@H]3[C@@H](O)[C@@H]21 here
Given back: -1

Asked: # fetch the recorded call for Cc1c(C)c2c(c(C)c1O)CCC(C)(CCCC(C)CCCC(C)CCCC(C)C)O2 (centres undefined) here
Given back: -1

Asked: # fetch the recorded call for CS(=O)(=O)Nc1ccc([N+](=O)[O-])cc1Oc1ccccc1 here
Given back: -1

Asked: # fetch the recorded call for Cc1cc(=O)[nH]c(=S)[nH]1 here
Given back: -1

Asked: # fetch the recorded call for CC(=O)Oc1cccc(O)c1 here
Given back: -1

Asked: # fetch the recorded call for O=C(O)c1cccnc1 here
Given back: -1

Asked: # fetch the recorded call for NC1=NCCN1CC(=O)O here
Given back: -1

Asked: # fetch the recorded call for COC(=O)c1c(C)c2c(c(C)c1O)OC(=O)c1c(C)c(Cl)c(O)c(Cl)c1O2 here
Given back: -1

Asked: # fetch the recorded call for CC(C)NCC(O)COc1ccc(COCCOC(C)C)cc1 (centres undefined) here
Given back: -1

Asked: # fetch the recorded call for CC(=O)Oc1ccc(O)cc1 here
Given back: -1

Asked: # fetch the recorded call for CN(C)[C@@H]1C(=O)C(C(=O)NCN2CCCC2)=C(O)[C@@]2(O)C(=O)C3=C(O)c4c(O)cccc4[C@@](C)(O)[C@H]3C[C@@H]12 here
Given back: -1

Asked: # fetch the recorded call for O=P1(NCCCl)OCCCN1CCCl (centres undefined) here
Given back: -1

Asked: # fetch the recorded call for CC(C)CCCC(C)C1CCC2C3CC(=O)[C@H]4C[C@@H](O)CC[C@]4(C)C3CC[C@]12C (some centres undefined) here
Given back: -1

====

test: chemical genetic growth profiling, strain panel (AID 1159580);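 also: tested at 20 µM; growth read once vehicle control cultures reached saturation at 30 °C; 1 = growth at the plate median or of vehicle wells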; conditions: S. cerevisiae deletion strains, growth OD, locus YMR058W, strain fet3, stronger effect = lower value
In all, about 5,500 compounds went through this assay and about 2,000 (36%) were called active. Roughly 18% stayed inconclusive and do not appear here. The list shows a part of the results.
Assign normalized growth to each entry below.
No unit in the answer, please; the number alone is enough.

Asked: Recall and state the measured normalized growth for OC[C@H]1O[C@@](CO)(O[C@@H]2O[C@H](CO)[C@@H](O)[C@H](O)[C@H]2O)[C@@H](O[C@@H]2O[C@H](CO)[C@@H](O)[C@H](O)[C@H]2O)[C@@H]1O .
Given back: 1.02

Asked: Recall and state the measured normalized growth for CCCN(CCC)S(=O)(=O)c1ccc(C(=O)O)cc1 .
Given back: 0.991

Asked: Recall and state the measured normalized growth for OC[C@H]1O[C@@H](O[C@@H]2[C@@H](CO)O[C@](O)(CO)[C@H]2O)[C@H](O)[C@@H](O)[C@H]1O .
Given back: 1.01

====

assay: chemical genetic growth profiling, strain panel (AID 1159580);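 also: tested at 20 µM; growth read once vehicle control cultures reached saturation at 30 °C; 1 = growth at the plate median or of vehicle wells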; conditions: S. cerevisiae deletion strains, growth OD, locus YJL187C, strain SWE1 (second series), stronger effect = lower value
In all, about 5,500 compounds went through this assay and about 2,000 (36%) were called active. Roughly 18% stayed inconclusive and do not appear here. The list shows a part of the results.
Values of normalized growth strictly less than 1 map to yes, and values of at least 1 map to no.

Asked: Is 1 strictly greater than the compound's reported normalized growth? compound: COC(=O)/C(=C1\OC(=O)C(c2ccccc2)=C1O)c1ccccc1
Given back: no

Asked: Is 1 strictly greater than the compound's reported normalized growth? compound: COC(=O)c1c(OC)cc2c(c1C)Oc1c(Cl)c(O)c(Cl)c(C)c1C(=O)O2
Given back: yes

Asked: Is 1 strictly greater than the compound's reported normalized growth? compound: CC(C)=CCc1c2c(c3occ(-c4ccc(O)c(O)c4)c(=O)c3c1O)C=CC(C)(C)O2
Given back: yes

Asked: Is 1 strictly greater than the compound's reported normalized growth? compound: C=C1c2c(Cl)ccc(O)c2C(O)=C2C(=O)[C@]3(O)C(O)=C(C(N)=O)C(=O)[C@@H](N(C)C)[C@@H]3[C@@H](O)[C@H]12
Given back: yes

Asked: Is 1 strictly greater than the compound's reported normalized growth? compound: CCCSc1ccc2nc(NC(=O)OC)[nH]c2c1
Given back: yes

Asked: Is 1 strictly greater than the compound's reported normalized growth? compound: CC(=O)Oc1ccc(C(c2ccc(OC(C)=O)cc2)c2ccccn2)cc1
Given back: yes

Asked: Is 1 strictly greater than the compound's reported normalized growth? compound: CN(C)c1ccc(O)c2c1C[C@H]1C[C@H]3[C@H](N(C)C)C(=O)C(C(N)=O)=C(O)[C@@]3(O)C(=O)C1=C2O
Given back: yes

Asked: Is 1 strictly greater than the compound's reported normalized growth? compound: CC(=O)c1cc(CC=C(C)C)c(O)c(CC=C(C)C)c1
Given back: yes

Asked: Is 1 strictly greater than the compound's reported normalized growth? compound: COc1cc(C/C=C/c2ccccc2)c(OC)cc1O
Given back: yes

Asked: Is 1 strictly greater than the compound's reported normalized growth? compound: NS(=O)(=O)c1cc2c(cc1Cl)NC(CSCc1ccccc1)=NS2(=O)=O
Given back: yes

Asked: Is 1 strictly greater than the compound's reported normalized growth? compound: COC(=O)c1c(C)c2c(c(C)c1O)OC(=O)c1c(C)c(Cl)c(O)c(Cl)c1O2
Given back: yes

Asked: Is 1 strictly greater than the compound's reported normalized growth? compound: CC(C)CCCC(C)[C@H]1CCC2C3C(=O)C=C4C[C@@H](O)CC[C@]4(C)C3CC[C@@]21C (some centres not stated)
Given back: no

====

experiment: chemical genetic growth profiling, strain panel (AID 1159580);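 also: tested at 20 µM; growth read once vehicle control cultures reached saturation at 30 °C; 1 = growth at the plate median or of vehicle wells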; conditions: S. cerevisiae deletion strains, growth OD, locus YLL001W, strain dnm1, stronger effect = lower value
In all, about 5,500 compounds went through this assay and about 2,000 (36%) were called active. Roughly 18% stayed inconclusive and do not appear here. The list shows a part of the results.
Values of normalized growth strictly less than 1 map to TRUE, and values of at least 1 map to FALSE.

Asked: Is 1 strictly greater than the molecule's reported normalized growth? molecule: O=P1(N(CCCl)CCCl)NCCCO1 (stereo not given)
Given back: FALSE

Asked: Is 1 strictly greater than the molecule's reported normalized growth? molecule: Cc1scc2c1N(C(=O)CN1CCN(C)CC1)c1ccccc1NC2=O
Given back: TRUE
